Cited source: patent US8765409B2

Test system: O-glycosylation of human anti-Her2 antibody in Pichia pastoris strain yGLY4280 (Pmt-mediated)
Assay: O-glycan occupancy of secreted anti-Her2 antibody (Dionex HPAEC-PAD) from shake-flask cultures treated with Pmt inhibitor
Format: cell-based
Conditions: inhibitor 0.15 ug/mL added at induction; 24 hr in induction media; protein A purified anti-Her2; no inhibitor >14.0
# O-glycan occupancy (moles O-mannose/moles Ab) values compiled below
assay readout: O-glycan occupancy (moles O-mannose/moles Ab)

| molecule | recorded result |
| --- | --- |
| CC(C)COCC(Oc1cc(/C=C2\SC(=S)N(CC(=O)O)C2=O)ccc1OCCc1ccc(F)cc1)c1ccccc1 (centres unmarked) | 5.2 |
| COCC(COC)(Oc1cc(/C=C2/SC(=S)N(CC(=O)O)C2=O)ccc1OCCc1ccc(F)cc1)c1ccccc1 | 4.1 |
| O=C(O)CN1C(=O)/C(=C/c2ccc(OCCc3ccc(F)cc3)c(OC(c3ccccc3)c3ccccc3)c2)SC1=S | 4.3 |
| O=C(O)CN1C(=O)/C(=C/c2ccc(OCCc3ccccc3)c(OC(CO)c3ccccc3)c2)SC1=S (centres unmarked) [Pmti-3, reference compound] | 8.1 |
| O=C(O)CN1C(=O)/C(=C/c2ccc(OCCc3ccc(F)cc3)c(OC(c3ccccc3)C3CCCCC3)c2)SC1=S (centres unmarked) | 5.5 |
